- measurementTarget: human α4β7 (Homo sapiens, UniProt P13612+P26010)
- Construct: expressed in transfected cells
- Sequence (P13612 34-1032): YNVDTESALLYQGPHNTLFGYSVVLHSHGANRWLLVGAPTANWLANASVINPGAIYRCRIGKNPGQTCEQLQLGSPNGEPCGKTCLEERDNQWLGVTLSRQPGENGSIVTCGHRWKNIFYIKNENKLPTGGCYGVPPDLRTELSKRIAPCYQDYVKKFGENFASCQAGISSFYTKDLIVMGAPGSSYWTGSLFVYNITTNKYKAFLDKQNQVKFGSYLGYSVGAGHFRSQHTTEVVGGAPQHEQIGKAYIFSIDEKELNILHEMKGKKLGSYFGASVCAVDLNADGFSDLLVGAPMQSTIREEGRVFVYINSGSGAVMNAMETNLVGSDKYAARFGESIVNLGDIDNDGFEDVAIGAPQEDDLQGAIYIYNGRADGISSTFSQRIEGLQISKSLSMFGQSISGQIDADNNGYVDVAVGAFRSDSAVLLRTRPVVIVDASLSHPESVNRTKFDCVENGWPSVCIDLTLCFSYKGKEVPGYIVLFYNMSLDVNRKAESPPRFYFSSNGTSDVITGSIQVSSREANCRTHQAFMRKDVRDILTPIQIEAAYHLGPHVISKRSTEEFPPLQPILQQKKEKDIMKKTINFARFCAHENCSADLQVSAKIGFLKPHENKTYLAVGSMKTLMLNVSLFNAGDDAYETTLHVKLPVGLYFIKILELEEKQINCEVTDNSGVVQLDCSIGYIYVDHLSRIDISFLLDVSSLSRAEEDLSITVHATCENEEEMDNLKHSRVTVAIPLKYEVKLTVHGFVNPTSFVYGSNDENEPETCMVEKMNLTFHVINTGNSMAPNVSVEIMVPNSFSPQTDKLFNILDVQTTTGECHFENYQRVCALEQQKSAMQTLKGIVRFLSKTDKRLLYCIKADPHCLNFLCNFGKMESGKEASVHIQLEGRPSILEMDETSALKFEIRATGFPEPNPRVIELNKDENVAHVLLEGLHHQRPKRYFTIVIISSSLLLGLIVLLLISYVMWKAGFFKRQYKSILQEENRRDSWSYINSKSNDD
- Sequence (P26010 20-798): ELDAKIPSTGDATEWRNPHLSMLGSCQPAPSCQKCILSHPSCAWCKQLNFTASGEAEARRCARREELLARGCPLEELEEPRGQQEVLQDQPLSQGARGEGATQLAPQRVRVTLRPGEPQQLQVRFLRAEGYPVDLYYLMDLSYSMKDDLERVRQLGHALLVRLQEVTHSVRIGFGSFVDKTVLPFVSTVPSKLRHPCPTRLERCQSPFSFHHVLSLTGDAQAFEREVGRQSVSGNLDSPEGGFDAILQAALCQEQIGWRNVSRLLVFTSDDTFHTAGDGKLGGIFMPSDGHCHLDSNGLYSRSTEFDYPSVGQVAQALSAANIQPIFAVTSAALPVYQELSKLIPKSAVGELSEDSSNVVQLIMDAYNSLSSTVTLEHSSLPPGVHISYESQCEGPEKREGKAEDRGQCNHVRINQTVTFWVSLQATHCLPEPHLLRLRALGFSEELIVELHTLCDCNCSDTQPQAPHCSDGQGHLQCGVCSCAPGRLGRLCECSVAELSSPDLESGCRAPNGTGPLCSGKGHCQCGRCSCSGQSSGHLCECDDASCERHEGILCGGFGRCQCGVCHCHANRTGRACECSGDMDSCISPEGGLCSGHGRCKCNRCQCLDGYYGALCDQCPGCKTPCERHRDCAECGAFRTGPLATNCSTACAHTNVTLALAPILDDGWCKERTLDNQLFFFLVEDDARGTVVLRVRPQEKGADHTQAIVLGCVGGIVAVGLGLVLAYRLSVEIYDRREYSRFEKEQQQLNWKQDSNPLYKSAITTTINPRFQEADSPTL
- testDetails: α4β7-K562 Cell Adhesion Assay (α4β7 Mediated Adhesion/VCAM-1)
- Type: cell-based
- measurementSetup: Table I; racemic mixtures and resolved (S,S) and (R,S) diastereomers; read-out: Antagonist IC50 Activity α4β7
Could you please report measured pIC50 for the items listed next?
Give bare numbers, as −log10 of the molar value.

Past entries and their recorded results:
O=C(Nc1ccc(C[C@H](NC(=O)[C@H]2C3CCC(C3)N2S(=O)(=O)c2ccccc2)C(=O)O)cc1)c1c(F)cccc1F (stereo partly drawn)	5.47
COc1cccc(OC)c1-c1ccc(C[C@H](NC(=O)[C@H]2C3CCC(CC3)N2S(=O)(=O)c2ccc(C)cc2)C(=O)O)cc1 [Cpd 18a]	5.05

Now let's try a different one.
Query :: GET /values?readout=pIC50&item= O=C(Nc1ccc(C[C@H](NC(=O)C2C3CCC(CC3)N2S(=O)(=O)c2ccccc2)C(=O)O)cc1)c1c(Cl)cccc1Cl (mixture of isomers)
Result :: 6.55

----------
- measurementTarget: α4β1 integrin receptor (Homo sapiens, UniProt P05556+P13612)
- Construct: Ramos Cell Adhesion Assay (α4β1 Mediated Adhesion/VCAM-1); endogenous in cells; host or cells: Ramos cells
- Sequence (P13612 34-1032): as the sequence (P13612 34-1032) above
- Sequence (P05556 21-798): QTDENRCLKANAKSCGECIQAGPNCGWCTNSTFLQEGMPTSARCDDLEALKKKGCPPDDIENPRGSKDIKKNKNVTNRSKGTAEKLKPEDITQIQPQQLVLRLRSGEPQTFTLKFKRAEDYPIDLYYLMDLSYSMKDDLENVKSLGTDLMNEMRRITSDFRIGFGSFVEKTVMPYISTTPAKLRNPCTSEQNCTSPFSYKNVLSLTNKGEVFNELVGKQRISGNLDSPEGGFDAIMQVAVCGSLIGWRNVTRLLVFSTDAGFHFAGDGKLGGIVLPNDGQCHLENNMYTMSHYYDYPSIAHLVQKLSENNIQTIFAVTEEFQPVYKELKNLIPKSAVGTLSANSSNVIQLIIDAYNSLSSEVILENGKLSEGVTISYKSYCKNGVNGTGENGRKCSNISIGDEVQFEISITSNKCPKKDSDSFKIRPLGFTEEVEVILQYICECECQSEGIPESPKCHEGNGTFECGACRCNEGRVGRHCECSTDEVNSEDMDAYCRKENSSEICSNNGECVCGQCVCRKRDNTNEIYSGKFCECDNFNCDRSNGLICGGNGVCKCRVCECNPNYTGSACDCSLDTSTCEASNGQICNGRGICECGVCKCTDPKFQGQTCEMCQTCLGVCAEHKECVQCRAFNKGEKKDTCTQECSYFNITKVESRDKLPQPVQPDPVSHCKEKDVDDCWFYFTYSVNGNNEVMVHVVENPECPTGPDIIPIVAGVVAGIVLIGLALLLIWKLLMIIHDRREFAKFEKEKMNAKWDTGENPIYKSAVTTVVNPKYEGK
- testDetails: Ramos Cell Adhesion Assay (α4β1 Mediated Adhesion/VCAM-1)
- Type: cell-based
- measurementSetup: Table III; read-out: Inhibition of Binding of Ramos Cells to Immobilized VCAM-1 IC50
pIC50: −log10 of the molar value.
Classify by measured pIC50: yes (1) if it is equal to or exceeds 7, no (0) if it is smaller.

// below: answered compounds
O=C(O)[C@H](Cc1ccc(N2C(=O)c3ccccc3C2=O)cc1)NC(=O)[C@@H]1C2CCC(CC2)N1S(=O)(=O)c1ccccc1 [Cpd 47a]	yes (1)
Cc1ccc(S(=O)(=O)N2C3CCC(CC3)C2C(=O)N[C@@H](Cc2ccc(NC(=O)c3ccccc3C)cc2)C(=O)O)cc1 (stereo partly shown) [Cpd 9]	no (0)
CC(C)N(C(=O)Oc1ccc(C[C@H](NC(=O)C2C3CCC(CC3)N2S(=O)(=O)c2ccccc2)C(=O)O)cc1)C(C)C (stereo partly shown) [Cpd 57]	no (0)
Cc1ccc(S(=O)(=O)N2C3CCC(CC3)C2C(=O)N[C@@H](Cc2ccc(C#Cc3ccc(C(C)(C)C)cc3)cc2)C(=O)O)cc1 (stereo partly shown) [Cpd 23]	no (0)
O=C(Nc1ccc(C[C@H](NC(=O)[C@@H]2C3CCC(CC3)N2S(=O)(=O)c2ccccc2)C(=O)O)cc1)c1ccncc1 [Cpd 50a]	yes (1)
O=C(Nc1ccc(C[C@H](NC(=O)[C@@H]2C3CCC(CC3)N2S(=O)(=O)c2cccs2)C(=O)O)cc1)c1c(Cl)cncc1Cl [Cpd 71a]	no (0)

Query :: Determine whether measured pIC50 meets or exceeds 7 for COc1ccc(OC)c(C(=O)c2ccc(C(=O)Nc3ccc(C[C@H](NC(=O)C4C5CCC(CC5)N4S(=O)(=O)c4ccc(C)cc4)C(=O)O)cc3)cc2)c1 (stereo partly shown) [Cpd 26]
Result :: no (0)

Query :: Determine whether measured pIC50 meets or exceeds 7 for CC(C)(C)Oc1ccc(C[C@H](NC(=O)C2C3CCC(CC3)N2S(=O)(=O)c2ccccc2)C(=O)O)cc1 (stereo partly shown) [Cpd 45]
Result :: no (0)

Query :: Determine whether measured pIC50 meets or exceeds 7 for O=C(Nc1ccc(C[C@H](NC(=O)C2C3CCC(CC3)N2S(=O)(=O)c2cccs2)C(=O)O)cc1)c1c(Cl)cccc1Cl (stereo partly shown) [Cpd 66]
Result :: yes (1)

Query :: Determine whether measured pIC50 meets or exceeds 7 for CC1(C)C(C(=O)Nc2ccc(C[C@H](NC(=O)[C@@H]3C4CCC(CC4)N3S(=O)(=O)c3ccccc3)C(=O)O)cc2)C1(C)C [Cpd 68]
Result :: no (0)

----------
- measurementTarget: α4β1 integrin receptor (Homo sapiens, UniProt P05556+P13612)
- Construct: Ramos Cell Adhesion Assay (α4β1 Mediated Adhesion/VCAM-1); endogenous in cells; host or cells: Ramos cells
- testDetails: Ramos Cell Adhesion Assay (α4β1 Mediated Adhesion/VCAM-1)
- Type: cell-based
- measurementSetup: Table III; read-out: Inhibition of Binding of Ramos Cells to Immobilized VCAM-1 IC50
Could you please report measured pIC50 for the items listed next?
Numbers only, as −log10 of the molar value.

Past entries and their recorded results:
O=C(Nc1ccc(C[C@H](NC(=O)[C@H]2C3CCC(CC3)N2S(=O)(=O)c2ccccc2)C(=O)O)cc1)c1c(Cl)cccc1Cl	6.65
O=C(N[C@@H](Cc1ccc(OC(=O)N2CCOCC2)cc1)C(=O)O)C1C2CCC(CC2)N1S(=O)(=O)c1ccccc1 (stereo partly shown)	6.86
Cc1ccc(S(=O)(=O)N2C3CCC(CC3)C2C(=O)N[C@@H](Cc2ccc(NC(=O)c3ccccc3Cl)cc2)C(=O)O)cc1 (stereo partly shown)	6.84

Now let's try a different one.
Query :: GET /values?readout=pIC50&item= COc1cccc(OC)c1C(=O)Nc1ccc(C[C@H](NC(=O)C2C3CCC(CC3)N2S(=O)(=O)c2ccc(F)cc2)C(=O)O)cc1 (stereo partly shown)
Result :: 6.52

----------
- measurementTarget: human α4β7 (Homo sapiens, UniProt P13612+P26010)
- Construct: expressed in transfected cells
- testDetails: α4β7-K562 Cell Adhesion Assay (α4β7 Mediated Adhesion/VCAM-1)
- Format: cell-based
quantity: IC50

Below are some molecules; for each one, tell me its IC50.
1. CN(C)C(=O)Oc1ccc(C[C@H](NC(=O)C2C3CCC(CC3)N2S(=O)(=O)c2ccccc2)C(=O)O)cc1 (mixture of isomers) [Cpd 52]
2. CN(C)C(=O)Oc1ccc(C[C@H](NC(=O)[C@@H]2C3CCC(CC3)N2S(=O)(=O)c2ccccc2)C(=O)O)cc1 [Cpd 52a]
3. CN(C)C(=O)Oc1ccc(C[C@H](NC(=O)C2C3CCC(CC3)N2S(=O)(=O)c2cccs2)C(=O)O)cc1 (stereo partly drawn) [Cpd 63]

Result ::
998 nM
436 nM
286 nM

----------
- measurementTarget: α4β1 integrin receptor (Homo sapiens, UniProt P05556+P13612)
- Construct: Ramos Cell Adhesion Assay (α4β1 Mediated Adhesion/VCAM-1); endogenous in cells; host or cells: Ramos cells
- testDetails: Ramos Cell Adhesion Assay (α4β1 Mediated Adhesion/VCAM-1)
- Format: cell-based
- measurementSetup: Antagonist IC50 Activity α4β1, Table I; racemic mixtures and resolved (S,S) and (R,S) diastereomers
Could you please report measured pIC50 for the items listed next?
One number for each entry, as −log10 of the molar value.

CN(C)C(=O)Oc1ccc(C[C@H](NC(=O)C2C3CCC(CC3)N2S(=O)(=O)c2ccccc2)C(=O)O)cc1 (mixture of isomers)	6.91

Now let's try a different one.
Query :: Missing value: pIC50, α4β1 integrin receptor (Homo sapiens, UniProt P05556+P13612), entry CN(C)C(=O)Oc1ccc(C[C@H](NC(=O)[C@@H]2C3CCC(CC3)N2S(=O)(=O)c2ccccc2)C(=O)O)cc1 [Cpd 52a] . Fill in?
Result :: 7.35

----------
- measurementTarget: α4β1 integrin receptor (Homo sapiens, UniProt P05556+P13612)
- Construct: Ramos Cell Adhesion Assay (α4β1 Mediated Adhesion/VCAM-1); endogenous in cells; host or cells: Ramos cells
- testDetails: Ramos Cell Adhesion Assay (α4β1 Mediated Adhesion/VCAM-1)
- Assay type: cell-based
- measurementSetup: Table I; racemic mixtures and resolved (S,S) and (R,S) diastereomers; read-out: Antagonist IC50 Activity α4β1
quantity: IC50

Past entries and their recorded results:
O=C(O)[C@H](Cc1ccc(N2C(=O)c3ccccc3C2=O)cc1)NC(=O)[C@@H]1C2CCC(CC2)N1S(=O)(=O)c1ccccc1 [Cpd 47a]	26 nM
CC(C)(C)OC(=O)N1CCC(C(=O)Nc2ccc(C[C@H](NC(=O)C3C4CCC(CC4)N3S(=O)(=O)c3ccccc3)C(=O)O)cc2)CC1 (mixture of isomers) [Cpd 53]	179 nM

Now let's try a different one.
Query :: GET /values?readout=IC50&item= O=C(Nc1ccc(C[C@H](NC(=O)[C@@H]2C3CCC(C3)N2S(=O)(=O)c2ccccc2)C(=O)O)cc1)c1c(F)cccc1F (stereo partly drawn) [Cpd 5a]
Result :: 81 nM

----------
- measurementTarget: human α4β7 (Homo sapiens, UniProt P13612+P26010)
- Construct: expressed in transfected cells
- testDetails: α4β7-K562 Cell Adhesion Assay (α4β7 Mediated Adhesion/VCAM-1)
- Type: cell-based
- measurementSetup: Table IV; read-out: Inhibition of Binding of K562 Cells to Immobilized VCAM-1 IC50
quantity: IC50 (nM)
One number for each entry, in nM.

Past entries and their recorded results:
O=C(Nc1ccc(C[C@H](NC(=O)[C@@H]2C3CCC(CC3)N2S(=O)(=O)c2ccccc2)C(=O)O)cc1)C1CC1 [Cpd 67]	683
O=C(Nc1ccc(C[C@H](NC(=O)C2C3CCC(CC3)N2S(=O)(=O)c2ccccc2)C(=O)O)cc1)c1ccncc1 (some centres unmarked) [Cpd 50]	810
O=C(N[C@@H](Cc1ccc(OCc2c(Cl)cccc2Cl)cc1)C(=O)O)C1C2C=CC(CC2)N1S(=O)(=O)c1ccccc1 (some centres unmarked) [Cpd 40]	2510
COc1cccc(OC)c1C(=O)Nc1ccc(C[C@H](NC(=O)C2C3CCC(CC3)N2S(=O)(=O)c2ccc(F)cc2)C(=O)O)cc1 (some centres unmarked) [Cpd 55]	91
O=C(Nc1ccc(C[C@H](NC(=O)C2C3CCC(CC3)N2S(=O)(=O)c2ccccc2)C(=O)O)cc1)C1CCNCC1 (some centres unmarked) [Cpd 59]	1500

Below are some compounds; for each one, tell me its IC50.
1. Cc1ccc(S(=O)(=O)N2C3CCC(CC3)C2C(=O)N[C@@H](Cc2ccc(NC(=O)c3c(F)cccc3F)cc2)C(=O)O)cc1 (some centres unmarked) [Cpd 11]
2. O=C(Nc1ccc(C[C@H](NC(=O)C2C3CCC(CC3)N2S(=O)(=O)c2cccs2)C(=O)O)cc1)c1c(Cl)cccc1Cl (some centres unmarked) [Cpd 66]
3. O=C(Nc1ccc(C[C@H](NC(=O)C2C3CCC(CC3)N2S(=O)(=O)c2ccccc2)C(=O)O)cc1)c1c(F)cccc1F (some centres unmarked) [Cpd 15]
4. O=C(N[C@@H](Cc1ccc(OC(=O)N2CCOCC2)cc1)C(=O)O)C1C2CCC(CC2)N1S(=O)(=O)c1ccccc1 (some centres unmarked) [Cpd 56]
5. O=C(Nc1ccc(C[C@H](NC(=O)C2C3C=CC(CC3)N2S(=O)(=O)c2ccccc2)C(=O)O)cc1)c1c(Cl)cccc1Cl (some centres unmarked) [Cpd 42]
6. Cc1ccc(S(=O)(=O)N2C3CCC(CC3)C2C(=O)N[C@@H](Cc2ccc(NC(=O)c3ccccc3C(F)(F)F)cc2)C(=O)O)cc1 (some centres unmarked) [Cpd 12]
7. CC(C)C(=O)Nc1ccc(C[C@H](NC(=O)[C@@H]2C3CCC(CC3)N2S(=O)(=O)c2ccccc2)C(=O)O)cc1 [Cpd 69]

Result ::
1: 1490; 2: 186; 3: 1390; 4: 47; 5: 279; 6: 1080; 7: 1670

Below are some compounds; for each one, tell me its IC50.
1. O=C(Nc1ccc(C[C@H](NC(=O)C2C3CCC(CC3)N2S(=O)(=O)c2ccccc2)C(=O)O)cc1)c1c(F)cc(F)cc1F (some centres unmarked) [Cpd 43]
2. CCOc1ccc2ccccc2c1C(=O)Nc1ccc(C[C@H](NC(=O)[C@@H]2C3CCC(CC3)N2S(=O)(=O)c2ccccc2)C(=O)O)cc1 [Cpd 65]

Result ::
442
394
